Answer each item with its documented Emax.
Biological target: p53 Y220C (Homo sapiens, UniProt P04637, Y220C)
Test: Luciferase Reporter Assay (Luc), p53 response element, NClH1299 cells with inducible p53 Y220C
Format: cell-based
Settings: luciferase reporter, NClH1299 inducible p53 Y220C, 6 hour; 10 uM tool compound as positive control
Procedure: Luciferase Reporter Assay Protocol The cells were then used for p53 reporter assay. 5,000 cells were seeded in each well of 384 plate and cultured in 0.5 ug/mL doxycycline (D3072; Sigma) containing medium for 24 hours before compound treatment. […] The luciferase activity was immediately measured with PheraStar microplate reader.

Kindly note the recorded Emax for "CNS(=O)(=O)c1ccc(OC)c(NCC#Cc2cc3c(N[C@@H]4CCN(C)C[C@@H]4F)cccn3c2SC(F)(F)F)c1" , which is 80 to 90%

Lab note: "CNC(=O)c1cccc(NCC#Cc2nc3c(N[C@@H]4CCN(C)C[C@@H]4F)cccn3c2SC(F)(F)F)c1" gave Emax of 80 to 90%

Please fill in: Emax reported for "CNC(=O)c1ccc(NCC#Cc2nc3c(N[C@@H]4CCc5nncn5C4)cccn3c2SC(F)(F)F)c(OC)c1" = < 70%

The reported value for "CNC(=O)c1ccc(NCC#Cc2nc3c(N[C@@H]4CCC(=O)NC4)cccn3c2SC(F)(F)F)c(OC)c1" in terms of Emax is 80 to 90%

###

Exercise: state measured Emax for each of the compounds provided.
molecular target: p53 Y220C (Homo sapiens, UniProt P04637, Y220C); test: Luciferase Reporter Assay (Luc), p53 response element, NClH1299 cells with inducible p53 Y220C; format: cell-based; settings: Emax; luciferase reporter, NClH1299 inducible p53 Y220C, 6 hour

Lab note: "CNC(=O)c1ccc(NCC#Cc2nc3c(NC4CCOCC4)cccn3c2SC(F)(F)F)c(OC)c1" gave Emax of 80 to 90%

For this compound ( "CS(=O)(=O)CCNC(=O)c1ccc(NCC#Cc2cc3c(N[C@@H]4CCNC[C@@H]4F)cccn3c2SC(F)(F)F)cc1" ), measured Emax is 80 to 90%

Given item "COc1cc2c[nH]nc2cc1NCC#Cc1nc2c(N[C@@H]3CCN(C)C[C@@H]3F)cccn2c1SC(F)(F)F" , the value recorded as its Emax is 80 to 90%

response.value for "COc1cc(P(C)(C)=O)ccc1NCC#Cc1cc2c(N[C@@H]3CCN(C)C[C@@H]3F)nccn2c1SC(F)F" (field: Emax) = 80 to 90%

Sure, the documented Emax for "CNC(=O)c1ccc(NCC#Cc2cc3c(N[C@@H]4CCN(C)C[C@@H]4F)cccn3c2SC(F)(F)F)c(OCF)c1" is > 90%

For this compound ( "CNC(=O)c1ccc(OC)c(NCC#Cc2cc3c(N[C@@H]4CCN(CC#N)C[C@@H]4F)nccn3c2SC(F)(F)F)c1" ), measured Emax is > 90%

For reference, reported Emax for "CNC(=O)c1cnc(OC)c(NCC#Cc2cc3c(N[C@@H]4CN(C)C[C@@H]4F)nccn3c2SC(F)F)c1" stands at > 90%

###

target: p53 Y220C mutant protein (amino acid residues 94-293) (Homo sapiens, UniProt P04637, Y220C); construct: p53 Y220C mutant protein (amino acid residues 94-293); assay: Thermal Shift Assay (TSA), dTM; assay type: binding; details: thermal shift, 100 uM compound; read-out: TSA P53 Y220C dTM (100 uM)
observable: ΔTm at 100 µM

So, "CNC(=O)c1ccc(OC)c(NCC#Cc2nc3c(N[C@@H]4C[C@H]5CC[C@H](N5)[C@@H]4F)cccn3c2SC(F)(F)F)c1" ? Its ΔTm at 100 µM was ≥ 10 °C

"COc1cc(S(C)(=O)=O)ccc1NCC#Cc1nc2c(N[C@@H]3CCNC[C@@H]3F)cccn2c1CC(F)(F)F" yielded ΔTm at 100 µM of ≥ 10 °C

Per the records, this molecule ( "CNC(=O)c1cccc(NCC#Cc2nc3c(N[C@@H]4CCN(C)C[C@@H]4F)cccn3c2SC(F)(F)F)c1" ) has ΔTm at 100 µM equal to ≥ 10 °C

// sample "COc1cc(S(C)(=O)=O)ccc1NCC#Cc1nc2c(NC3CCN(C(C)=O)CC3)cccn2c1CC(F)(F)F" , its ΔTm at 100 µM was 5 to 10 °C

###

Exercise: state measured pIC50 for each of the molecules provided.
system: H1299 p53 R273H; assay: Cell Proliferation Assay (CellTiter-Glo, CTG), H1299 p53 R273H (NClH1299-inducible p53 R273H); type: cell-based; details: Homo sapiens, NCI-H1299, 120 h, CellTiter-Glo, H1299 p53 R273H, 5 days
pIC50: −log10 of the molar value.

Fill in: H1299 p53 R273H pIC50 for "CNC(=O)c1ccc(OC)c(NCC#Cc2nn3c(N[C@@H]4CCN(C)C[C@@H]4F)cccc3c2SC(F)F)c1" = 5.10 to 5.30

Record "CNC(=O)c1ccc(NCC#Cc2nc3c(N[C@H]4C[C@@H]5CC[C@H]([C@H]4F)N5C)cccn3c2SC(F)(F)F)c(OC)c1" has H1299 p53 R273H pIC50 equal to 5.10 to 5.30

Observed pIC50, H1299 p53 R273H, "CNC(=O)c1ccc(NCC#Cc2nc3c(N[C@@H]4CCN(C)C[C@@H]4F)cccn3c2SC(F)(F)F)c(OC)n1" : 5.10 to 5.30

Reported H1299 p53 R273H pIC50 for item "CNC(=O)c1ccc(NCC#Cc2nc3c(N[C@@H]4CCN(C)C[C@@H]4F)cccn3c2SC(F)(F)F)cn1" was ≤ 5.00

###

test system: H1299 p53 R273H; experiment: Cell Proliferation Assay (CellTiter-Glo, CTG), H1299 p53 R273H (NClH1299-inducible p53 R273H); type: cell-based; conditions: Homo sapiens, NCI-H1299, 120 h, CellTiter-Glo, H1299 p53 R273H, 5 days
Provide the recorded IC50 for the entries that follow.

Data point: "CNC(=O)c1ccc(NCC#Cc2nc3c(NCC4(F)CN(C)C4)cccn3c2SC(F)(F)F)c(OC)c1" ; IC50 = 5 to 8 µM

Entry "COc1cc(S(C)(=O)=O)ccc1NCC#Cc1nc2c(N[C@@H]3CCN(C)C[C@@H]3F)cccn2c1CC(F)(F)F" — recorded IC50 = 8 to 10 µM

IC50 in this record for "COc1cc(S(C)(=O)=O)ccc1NCC#Cc1nc2c(NC3CCS(=O)(=O)CC3)cccn2c1CC(F)(F)F" : ≥ 10 µM

IC50 in this record for "COc1cc(S(C)(=O)=O)ccc1NCC#Cc1nc2c(N[C@@H]3C[C@H]4CC[C@H](N4)[C@@H]3F)cccn2c1SC(F)(F)F" : 5 to 8 µM

IC50 reported for this compound "CNC(=O)c1ccc(OC)c(NCC#Cc2nc3c(N[C@@H]4CCN(C)C[C@@H]4F)cc(F)cn3c2SC(F)(F)F)c1" : < 5 µM

Entry "COc1cc2c(cc1NCC#Cc1nc3c(N[C@@H]4CCN(C)C[C@@H]4F)cccn3c1CC(F)(F)F)CCNC2=O" — recorded IC50 = 5 to 8 µM

The reported value for "CNC(=O)c1cccc(NCC#Cc2nc3c(N[C@@H]4CCN(C)C[C@@H]4F)cccn3c2SC(F)(F)F)c1" in terms of IC50 is ≥ 10 µM

###

Biological target: p53 Y220C (Homo sapiens, UniProt P04637, Y220C)
Experiment: Luciferase Reporter Assay (Luc), p53 response element, NClH1299 cells with inducible p53 Y220C
Format: cell-based
Details: luciferase reporter, NClH1299 inducible p53 Y220C, 6 hour; 10 uM tool compound as positive control
Procedure: Luciferase Reporter Assay Protocol The cells were then used for p53 reporter assay. 5,000 cells were seeded in each well of 384 plate and cultured in 0.5 ug/mL doxycycline (D3072; Sigma) containing medium for 24 hours before compound treatment. […] The luciferase activity was immediately measured with PheraStar microplate reader.
observable: Emax

Fill in: p53 Y220C (Homo sapiens, UniProt P04637, Y220C) Emax for CN1CC[C@@H](Nc2cccn3c(CC(F)(F)F)c(C#CC(C)(C)O)nc23)[C@@H](F)C1 [Example 69] = < 70%

Response field Emax (p53 Y220C (Homo sapiens, UniProt P04637, Y220C)) for item CNC(=O)c1ccc(OC)c(NCC#Cc2cc3c(N[C@@H]4CNC[C@@H]4F)nccn3c2SC(F)(F)F)n1 [Example 210] : 80 to 90%

Entry COc1cc(C(=O)NCCN(C)C)ccc1NCC#Cc1nc2c(N[C@@H]3CCOC[C@@H]3F)cccn2c1SC(F)(F)F [Example 221] , tested on p53 Y220C (Homo sapiens, UniProt P04637, Y220C), has a reported Emax of 70 to 80%

Measured Emax for this entry COc1cc(C(N)=O)ccc1NCC#Cc1nc2c(N[C@@H]3CCN(C)C[C@@H]3F)cccn2c1SC(F)(F)F [Example 165] on p53 Y220C (Homo sapiens, UniProt P04637, Y220C): > 90%

Observed Emax, p53 Y220C (Homo sapiens, UniProt P04637, Y220C), CNC(=O)c1ccc(NCC#Cc2nc3c(N[C@@H]4CCN(C)C[C@@H]4F)cccn3c2C(F)(F)C(F)(F)F)c(OC)c1 [Example 30] : > 90%

# Emax measured on p53 Y220C (Homo sapiens, UniProt P04637, Y220C) for item CNC(=O)c1ccc(OC)c(NCC#Cc2nn3c(N[C@@H]4CCN(C)C[C@@H]4F)ccnc3c2SC(F)(F)F)c1 [Example 216] = < 70%

Entry CNC(=O)c1ccc(NCC#Cc2cc3c(N[C@@H]4CCN(C)C[C@@H]4F)nccn3c2SC(F)(F)F)c(OC)c1 [Example 155] , tested on p53 Y220C (Homo sapiens, UniProt P04637, Y220C), has a reported Emax of > 90%

Item CNC(=O)c1ccc(NCC#Cc2nc3c(N[C@H]4CCC(=O)N(C)C4)cccn3c2SC(F)(F)F)c(OC)c1 [Example 187] was tested on p53 Y220C (Homo sapiens, UniProt P04637, Y220C); the reported Emax is 80 to 90%

Entry CNC(=O)c1ccc(OC)c(NCC#Cc2nc3c(N[C@H]4C[C@@H]5CC[C@@H](N5)[C@H]4F)cccn3c2SC(F)(F)F)c1 [Example 203] , tested on p53 Y220C (Homo sapiens, UniProt P04637, Y220C), has a reported Emax of 70 to 80%

The compound CNC(=O)c1ccc(OC)c(NCC#Cc2nc3c(N[C@@H]4CCNC[C@@H]4F)cccn3c2SC(F)F)n1 [Example 193] , tested on p53 Y220C (Homo sapiens, UniProt P04637, Y220C), showed Emax of 70 to 80%

p53 Y220C (Homo sapiens, UniProt P04637, Y220C) Emax of CNC(=O)c1cnc(NCC#Cc2nc3c(N[C@@H]4CCN(C)C[C@@H]4F)cccn3c2SC(F)(F)F)c(OC)c1 [Example 136] is 70 to 80%

Reported p53 Y220C (Homo sapiens, UniProt P04637, Y220C) Emax for item CNC(=O)c1ccc(NCC#Cc2nc3c(NC4CCN(C)CC4)cc(NC(C)=O)cn3c2CC(F)(F)F)c(OC)c1 [Example 41] was < 70%

The compound CNC(=O)c1cncc(NCC#Cc2nc3c(N[C@@H]4CCN(C)C[C@@H]4F)cccn3c2SC(F)(F)F)c1 [Example 142] , when measured on p53 Y220C (Homo sapiens, UniProt P04637, Y220C), yielded Emax of < 70%

GET /values?item= COc1ccc(-c2ncc[nH]2)cc1NCC#Cc1nc2c(N[C@@H]3CCN(C)C[C@@H]3F)cccn2c1SC(F)(F)F [Example 220] &system= p53 Y220C (Homo sapiens, UniProt P04637, Y220C) returns Emax: 70 to 80%
